These entries and their values trace back to paper PMC9849758.

Molecular target: β-tryptase (Homo sapiens, UniProt P20231)
Sequence (P20231 31-275): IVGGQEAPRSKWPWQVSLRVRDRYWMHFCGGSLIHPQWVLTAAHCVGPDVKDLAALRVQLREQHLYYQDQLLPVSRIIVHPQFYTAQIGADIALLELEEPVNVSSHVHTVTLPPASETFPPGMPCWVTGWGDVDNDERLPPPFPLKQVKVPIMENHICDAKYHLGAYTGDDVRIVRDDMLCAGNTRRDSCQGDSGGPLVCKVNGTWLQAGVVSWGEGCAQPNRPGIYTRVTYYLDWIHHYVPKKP
Assay: Kinetic progress curves (kapp, K1, KI*, mechanism)
Format: biochemical
Set-up: purchased EnzoLife Sciences
Settings: defined by the progress curves: slow-binding (Rev.) or irreversible (Irrev.)
Description: Because the compounds described in this paper were previously described as irreversible inhibitors, the IC50 value is inversely correlated with the second-order rate constant of inactivation. […] The inactivation rate constant was determined from the time course of inhibition. Kinetic assays were performed in the following manner. […] Progress curves were recorded in pseudo-first-order conditions ([I]0>>[E]0) and with less than 10% conversion of the substrate during the entire time course. […]
Assay Metric: β-tryptase mechanism of inhibition

Check out these entries, answers already filled in.
{"Compound": "C[C@@H]1NC(=O)N[C@@H]1CCCCCC(=O)NCCOCCOCCOCCn1cc(CCCOC(=O)NC(CCCNC(=N)N)P(=O)(Oc2ccc(Cl)cc2)Oc2ccc(Cl)cc2)nn1 (stereo partly shown) [46b]", "Assay Metric": "β-tryptase mechanism of inhibition", "Assay Value": "Irrev."}
{"Compound": "C#CCCCOC(=O)NC(c1ccc(NC(=N)N)cc1)P(=O)(Oc1ccccc1)Oc1ccccc1.O=C(O)C(F)(F)F (stereo not shown) [37b]", "Assay Metric": "β-tryptase mechanism of inhibition", "Assay Value": "Irrev."}
{"Compound": "C#CCCCOC(=O)NC(c1ccc(NC(=N)N)cc1)P(=O)(Oc1ccc(NC(C)=O)cc1)Oc1ccc(NC(C)=O)cc1 (stereo not shown) [38b]", "Assay Metric": "β-tryptase mechanism of inhibition", "Assay Value": "Irrev."}
{"Compound": "C#CCCCOC(=O)NC(Cc1ccc(NC(=N)N)cc1)P(=O)(Oc1ccc(NC(C)=O)cc1)Oc1ccc(NC(C)=O)cc1 (stereo not shown) [35b]", "Assay Metric": "β-tryptase mechanism of inhibition", "Assay Value": "Rev."}
{"Compound": "C[C@@H]1NC(=O)N[C@@H]1CCCCCC(=O)NCCOCCOCCOCCn1cc(CCCOC(=O)NC(Cc2ccc(NC(=N)N)cc2)P(=O)(Oc2ccccc2)Oc2ccccc2)nn1 (stereo partly shown) [50b]", "Assay Metric": "β-tryptase mechanism of inhibition", "Assay Value": "Rev."}

Item under review: C#CCCCOC(=O)NC(Cc1ccc(NC(=N)N)cc1)P(=O)(Oc1ccccc1)Oc1ccccc1 (stereo not shown) [34b] . Reported β-tryptase mechanism of inhibition?
Rev.

Item under review: C[C@@H]1NC(=O)N[C@@H]1CCCCCC(=O)NCCOCCOCCOCCn1cc(CCCOC(=O)NC(c2ccc(NC(=N)N)cc2)P(=O)(Oc2ccc(Cl)cc2)Oc2ccc(Cl)cc2)nn1 (stereo partly shown) [57b] . Reported β-tryptase mechanism of inhibition?
Irrev.

* * *

Reported pIC50 values are given for each entry in this list.
molecular target: Neutrophil Elastase (recombinant neutrophil elastase) (Homo sapiens, UniProt P08246); construct: purchased Enzo LifeSciences; test: IC50 determination, spectrophotometric protease assay; assay type: biochemical; conditions: read-out: NE IC50; desthiobiotin probes; 15 min preincubation at 37°C; mean ± SD
Sequence (P08246 30-267, species assumed): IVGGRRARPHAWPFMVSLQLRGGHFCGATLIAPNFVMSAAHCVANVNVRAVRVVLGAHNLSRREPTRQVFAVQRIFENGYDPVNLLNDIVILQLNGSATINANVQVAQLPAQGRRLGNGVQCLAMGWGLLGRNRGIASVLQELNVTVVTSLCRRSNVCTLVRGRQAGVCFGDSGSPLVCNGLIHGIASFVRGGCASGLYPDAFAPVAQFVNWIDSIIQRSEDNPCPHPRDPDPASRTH
pIC50: −log10 of the molar value.

{"Molecule": "C[C@@H]1NC(=O)N[C@@H]1CCCCCC(=O)NCCOCCOCCOCCn1cc(CCCOC(=O)NC(CCCCN)P(=O)(Oc2ccccc2)Oc2ccccc2)nn1 (some centres unmarked) [47b]", "Tested On": "Neutrophil Elastase (recombinant neutrophil elastase) (Homo sapiens, UniProt P08246)", "pIC50": "< 5.00"}

Item under review: CC(=O)Nc1ccc(OP(=O)(Oc2ccc(NC(C)=O)cc2)C(CCCCN)NC(=O)OCCCc2cn(CCOCCOCCOCCNC(=O)CCCCC[C@H]3NC(=O)N[C@H]3C)nn2)cc1 (some centres unmarked) [49b] . Reported pIC50?
< 5.00
